B1: tRNA (parent)
chain: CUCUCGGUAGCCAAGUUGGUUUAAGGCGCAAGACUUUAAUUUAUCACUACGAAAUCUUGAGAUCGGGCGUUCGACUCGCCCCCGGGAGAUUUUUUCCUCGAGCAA

Variants of: B1
Assay: nonsense suppression (GFP-seq) (ratio to wild type); higher = more function; SUP4oc tRNA, yeast GFP reporter sort-seq
Variants at the floor of the assay were thinned out.
measured_attribute: nonsense suppression
One number for each entry.

Example entries begin here.
CUCUCGGUAGCCAAGUUGGUUUAAGGCGCAAGACUUUAAUUUAUCACUACGAAACCUUGAGAUCGGGCGUUCGACUCGCCCCCGGGACAUUUUUUCCUCGAGCAA [U55C G88C] = 0.0568
CUCUCGGUAGCCAAGUUGGUUUACGGCGCAAGACUUUAAUUUAUCACUACGAAAUCUUGAGAUCGGGCGUUCGACUCGCCCCUGGGAGAUUUUUUCCUCGAGCAA [A24C C83U] = 0.383
CUCUCGGUAGCCAAGUGGGUUUAAGGCGCAGGACUUUAAUUUAUCACUACGAAAUCUUGAGAUCGGGCGUUCGACUCGCCCCCGGGAGAUUUUUUCCUCGAGCAA [U17G A31G] = 1.15
CUCUCGGUAGCCAUGUUGGUUUAAGGCGCAAGACUUUAAUUUAUCACUACGAAAUCUUGAAAUCGGGCGUUCGACUCGCCCCCGGGAGAUUUUUUCCUCGAGCAA [A14U G61A] = 0.0341
CUCUCGGUGGCCAAGUUGGUUUAAGGCGCAAGACUUUAAUUUAUCACUACGAAAUCUUGAGAUCGGGCGUUCGACUCGCCUCCGGGAGAUUUUUUCCUCGAGCAA [A9G C81U] = 0.028
CUCUCGGUAGCCAAGUUGGUUUAAGGCUCAAGACUUUAAUUUAUCACUACGAAAUCUUGAGAUCGGGCGUUCGACUCUCCCCCGGGAGAUUUUUUCCUCGAGCAA [G28U G78U] = 0.0435
CUCUCGGUAGCCAAGUUGGUCUAAGGCGCAAGACUUUAAUUUAUCACUACGAAAUCUUGAGAUCGGGCGUUCGACUCGCCCCCGGGAGAUUUUUUCCUCGAGCAA [U21C] = 0.954
CUCUCGGUAGCCAAGUUGGUUUAAGGCGUAAGACUUUAAUUUAUCACUACGAAAUCUUGAGAUCGGGCGUUCGACUCGCCCCCGUGAGAUUUUUUCCUCGAGCAA [C29U G85U] = 0.0262

Report nonsense suppression for each item below.
1. CUCUCGGUAGCCCAGUUGGUUUAAGGCGCAAGACUUUAAUUUAUCACUACGAAAUCUUGAGAUCGGGCGUUCGACUCGCCCCCCGGAGAUUUUUUCCUCGAGCAA [A13C G84C]
2. CUCUCGGUAGCCUAGUUGGUUUAAGGCGCAAGACUUUAAUUUAUCACUACGAAAUCUUGAGAUCGGGCGUUCGACUCUCCCCCGGGAGAUUUUUUCCUCGAGCAA [A13U G78U]
3. CUCUCGGUAGCCAAGUUGGUUUAAGGCGUAAGACUUUAAUUUAUCACUACGAAAUCUUGAGAUCGGGUGUUCGACUCGCCCCCGGGAGAUUUUUUCCUCGAGCAA [C29U C68U]

result:
[0.0388, 0.236, 0.272]

Would you mind giving nonsense suppression for every variant in the list below?
1. CUCUCGGUAGCCAAGUUGGUUACAGGCGCAAGACUUUAAUUUAUCACUACGAAAUCUUGAGAUCGGGCGUUCGACUCGCCCCCGGGAGAUUUUUUCCUCGAGCAA [U22A A23C]
2. GUCUCGGUAGCCAAGUUGGUUUAAGGCGCAAGACUUUAAUUUAUCACUACGAACUCUUGAGAUCGGGCGUUCGACUCGCCCCCGGGAGAUUUUUUCCUCGAGCAA [C1G A54C]

result:
[0.153, 0.0309]

Report nonsense suppression for every entry below.
1. CUCCCGGAAGCCAAGUUGGUUUAAGGCGCAAGACUUUAAUUUAUCACUACGAAAUCUUGAGAUCGGGCGUUCGACUCGCCCCCGGGAGAUUUUUUCCUCGAGCAA [U4C U8A]
2. CUCUCGGUAGCCAAGUUGGUUUAAGGCGCAAGACUUUAAUUUAUCACUACGAAAUCUUGAGAUCGGGCGUUCGACACGCCCCCGGGGGAUUUUUUCCUCGAGCAA [U76A A87G]
3. CUCUCGGUAGCCCAGUUGGUUUAAGGCCCAAGACUUUAAUUUAUCACUACGAAAUCUUGAGAUCGGGCGUUCGACUCGCCCCCGGGAGAUUUUUUCCUCGAGCAA [A13C G28C]

result:
0.0441
0.0534
0.794
